Where do the numbers come from? From paper PMC11404609.

Test: Plasma pharmacokinetics of AP after oral administration in rats
Format: in vivo
Details: Sprague-Dawley, rat, plasma, po, 120 mg/kg, rats, AP 120 mg/kg oral gavage, ABX group, mean ± SD, n = 4
Procedure: Control and ABX rats were orally administered a single dose of AP at 120 mg/kg. Blood samples (500 μL) were collected at predetermined time intervals (0, 5, 10, 20, 30, 40, 60, 90, 120, 180, 240, 360, and 480 min). […] An ACQUITY^TM UPLC-MS/MS system equipped with an ACQUITY^TM UPLC BEH C18 Column (50 × 2.1 mm I.D., 1.7 μm, Waters, Milford, MA, USA) was utilized for the quantification of AP and APM as previously described.[47] […]

- compound: "C=C1CC[C@@H]2[C@](C)(CO)[C@H](O)CC[C@@]2(C)[C@@H]1C/C=C1/C(=O)OC[C@H]1O [AP, Andrographolide]"
  unit annotation: "ng·h/mL"
  AUC(0-inf): 5110

---

Assay: Plasma pharmacokinetics of AP after oral administration in rats
Type: in vivo
Conditions: SD, rat, plasma, po, 120 mg/kg, rats, AP 120 mg/kg oral gavage, ABX group, mean ± SD, n = 4
measurement type: half-life (h)

- compound: "C=C1CC[C@@H]2[C@](C)(CO)[C@H](O)CC[C@@]2(C)[C@@H]1C/C=C1/C(=O)OC[C@H]1O [AP, Andrographolide]"
  measurement type: "half-life"
  unit annotation: "h"
  endpoint result: 2.31

---

Assay: Plasma pharmacokinetics of AP after oral administration in mice
Type: in vivo
Details: mouse, plasma, po, 100 mg/kg, mice, AP 100 mg/kg oral gavage, Inhibitor group (bromocriptine mesylate 20 mg/kg p.o. 1 week before), mean ± SD, n = 10

- molecule: "C=C1CC[C@@H]2[C@](C)(CO)[C@H](O)CC[C@@]2(C)[C@@H]1C/C=C1/C(=O)OC[C@H]1O [AP, Andrographolide]"
  Tmax: "27 min"

---

Assay: Plasma pharmacokinetics of AP after oral administration in rats
Format: in vivo
Settings: Sprague-Dawley (SD), rat, plasma, po, 120 mg/kg, rats, AP 120 mg/kg oral gavage, SO4^2- group (Na2SO4 200 mg/kg p.o. 1 week before), mean ± SD, n = 5

- compound: "C=C1CC[C@@H]2[C@](C)(CO)[C@H](O)CC[C@@]2(C)[C@@H]1C/C=C1/C(=O)OC[C@H]1O [AP, Andrographolide]"
  AUC(0-t) (ng·h/mL): 1360

---

Assay: Plasma pharmacokinetics of AP after oral administration in mice
Format: in vivo
Details: mouse, plasma, po, 100 mg/kg, mice, AP 100 mg/kg oral gavage, SO4^2- group (Na2SO4 200 mg/kg p.o. 1 week before), mean ± SD, n = 10

- molecule: "C=C1CC[C@@H]2[C@](C)(CO)[C@H](O)CC[C@@]2(C)[C@@H]1C/C=C1/C(=O)OC[C@H]1O [AP, Andrographolide]"
  Tmax: "17 min"

---

Test: Plasma pharmacokinetics of AP after oral administration in rats
Assay type: in vivo
Details: Sprague-Dawley, rat, plasma, po, 120 mg/kg, rats, AP 120 mg/kg oral gavage, Inhibitor group (bromocriptine mesylate 20 mg/kg p.o. 1 week before), mean ± SD, n = 4

- compound: "C=C1CC[C@@H]2[C@](C)(CO)[C@H](O)CC[C@@]2(C)[C@@H]1C/C=C1/C(=O)OC[C@H]1O [AP, Andrographolide]"
  half-life (h): 1.82

---

Assay: Plasma pharmacokinetics of AP after oral administration in rats
Assay type: in vivo
Conditions: SD, rat, plasma, po, 120 mg/kg, rats, AP 120 mg/kg oral gavage, Control group (Table 1), mean ± SD, n = 4
Procedure: Control and ABX rats were orally administered a single dose of AP at 120 mg/kg. Blood samples (500 μL) were collected at predetermined time intervals (0, 5, 10, 20, 30, 40, 60, 90, 120, 180, 240, 360, and 480 min). […] An ACQUITY^TM UPLC-MS/MS system equipped with an ACQUITY^TM UPLC BEH C18 Column (50 × 2.1 mm I.D., 1.7 μm, Waters, Milford, MA, USA) was utilized for the quantification of AP and APM as previously described.[47] […]

- compound: "C=C1CC[C@@H]2[C@](C)(CO)[C@H](O)CC[C@@]2(C)[C@@H]1C/C=C1/C(=O)OC[C@H]1O [AP, Andrographolide]"
  unit annotation: "h"
  half-life: 3.07

---

Assay: Plasma pharmacokinetics of AP after oral administration in mice
Type: in vivo
Conditions: mouse, plasma, po, 100 mg/kg, mice, AP 100 mg/kg oral gavage, D. piger group (D. piger suspension by gavage 2 weeks before), mean ± SD, n = 12
measurement type: Cmax (ng/mL)

- compound: "C=C1CC[C@@H]2[C@](C)(CO)[C@H](O)CC[C@@]2(C)[C@@H]1C/C=C1/C(=O)OC[C@H]1O [AP, Andrographolide]"
  endpoint result: 360

---

Experiment: Plasma pharmacokinetics of AP after oral administration in rats
Type: in vivo
Conditions: Sprague-Dawley (SD), rat, plasma, po, 120 mg/kg, rats, AP 120 mg/kg oral gavage, SO4^2- group (Na2SO4 200 mg/kg p.o. 1 week before), mean ± SD, n = 5

- compound: "C=C1CC[C@@H]2[C@](C)(CO)[C@H](O)CC[C@@]2(C)[C@@H]1C/C=C1/C(=O)OC[C@H]1O [AP, Andrographolide]"
  half-life (h): 4.38

---

Assay: Plasma pharmacokinetics of AP after oral administration in rats
Assay type: in vivo
Settings: SD, rat, plasma, po, 120 mg/kg, rats, AP 120 mg/kg oral gavage, Control group (Table 1), mean ± SD, n = 4

- compound: "C=C1CC[C@@H]2[C@](C)(CO)[C@H](O)CC[C@@]2(C)[C@@H]1C/C=C1/C(=O)OC[C@H]1O [AP, Andrographolide]"
  Tmax / min: 50

---

Experiment: Plasma pharmacokinetics of AP after oral administration in rats
Type: in vivo
Conditions: Sprague-Dawley (SD), rat, plasma, po, 120 mg/kg, rats, AP 120 mg/kg oral gavage, Inhibitor group (bromocriptine mesylate 20 mg/kg p.o. 1 week before), mean ± SD, n = 4

- compound: "C=C1CC[C@@H]2[C@](C)(CO)[C@H](O)CC[C@@]2(C)[C@@H]1C/C=C1/C(=O)OC[C@H]1O [AP, Andrographolide]"
  unit annotation: "ng·h/mL"
  AUC(0-t): 7520

---

Experiment: Plasma pharmacokinetics of AP after oral administration in rats
Assay type: in vivo
Details: Sprague-Dawley (SD), rat, plasma, po, 120 mg/kg, rats, AP 120 mg/kg oral gavage, Control group (Table 2), mean ± SD, n = 4
measurement type: AUC(0-t) (µg·h/mL)

- molecule: "C=C1CC[C@@H]2[C@](C)(CO)[C@H](O)CC[C@@]2(C)[C@@H]1C/C=C1/C(=O)OC[C@H]1O [AP, Andrographolide]"
  measurement type: "AUC(0-t)"
  endpoint result: 3.44

---

Assay: Plasma pharmacokinetics of AP after oral administration in rats
Format: in vivo
Conditions: Sprague-Dawley, rat, plasma, po, 120 mg/kg, rats, AP 120 mg/kg oral gavage, Control group (Table 2), mean ± SD, n = 4

- compound: "C=C1CC[C@@H]2[C@](C)(CO)[C@H](O)CC[C@@]2(C)[C@@H]1C/C=C1/C(=O)OC[C@H]1O [AP, Andrographolide]"
  Cmax, ng/mL: 1420

---

Assay: Plasma pharmacokinetics of AP after oral administration in rats
Format: in vivo
Conditions: SD, rat, plasma, po, 120 mg/kg, rats, AP 120 mg/kg oral gavage, Control group (Table 1), mean ± SD, n = 4
measurement type: Cmax (ng/mL)

- compound: "C=C1CC[C@@H]2[C@](C)(CO)[C@H](O)CC[C@@]2(C)[C@@H]1C/C=C1/C(=O)OC[C@H]1O [AP, Andrographolide]"
  unit annotation: "ng/mL"
  endpoint result: 690

---

Assay: Plasma pharmacokinetics of AP after oral administration in mice
Type: in vivo
Conditions: mouse, plasma, po, 100 mg/kg, mice, AP 100 mg/kg oral gavage, Control group (Table 3), mean ± SD, n = 10
measurement type: half-life (h)

- molecule: "C=C1CC[C@@H]2[C@](C)(CO)[C@H](O)CC[C@@]2(C)[C@@H]1C/C=C1/C(=O)OC[C@H]1O [AP, Andrographolide]"
  unit annotation: "h"
  endpoint result: 2.43

---

Experiment: Plasma pharmacokinetics of AP after oral administration in mice
Type: in vivo
Conditions: mouse, plasma, po, 100 mg/kg, mice, AP 100 mg/kg oral gavage, SO4^2- group (Na2SO4 200 mg/kg p.o. 1 week before), mean ± SD, n = 10

- molecule: "C=C1CC[C@@H]2[C@](C)(CO)[C@H](O)CC[C@@]2(C)[C@@H]1C/C=C1/C(=O)OC[C@H]1O [AP, Andrographolide]"
  AUC(0-t): "199 ng·h/mL"
